Target: Cannabinoid receptor 1 (Rattus norvegicus, UniProt P20272)
Sequence (P20272 whole entry): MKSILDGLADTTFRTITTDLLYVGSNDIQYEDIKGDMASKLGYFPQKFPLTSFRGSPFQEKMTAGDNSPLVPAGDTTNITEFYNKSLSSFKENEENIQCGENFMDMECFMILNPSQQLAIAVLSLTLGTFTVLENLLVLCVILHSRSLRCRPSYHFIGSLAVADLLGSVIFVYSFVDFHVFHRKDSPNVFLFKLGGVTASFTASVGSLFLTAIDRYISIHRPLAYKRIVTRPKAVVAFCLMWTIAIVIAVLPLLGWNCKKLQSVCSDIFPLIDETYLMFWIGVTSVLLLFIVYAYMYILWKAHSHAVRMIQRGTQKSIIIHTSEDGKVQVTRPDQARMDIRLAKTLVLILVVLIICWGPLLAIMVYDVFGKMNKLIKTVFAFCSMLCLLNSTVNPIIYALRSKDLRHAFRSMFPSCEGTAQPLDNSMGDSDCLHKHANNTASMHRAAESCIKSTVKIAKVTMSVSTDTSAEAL
Test: Displacement of [3H]CP-55940 from CB1R in Sprague-Dawley rat cerebellar membrane
Design: species or system Cerebellum
Settings: read-out: IC50
RECORDED ENDPOINT: log10 IC50 (log10 of the value in nM)
Hello, just confirming the data are log10 of IC50 with units of nM.

As a guide, the following entries are already answered.
| SMILES | ASSAY RESULT |
| --- | --- |
| Cc1c(C(=O)NS(=O)(=O)c2cccc(Cl)c2)nn(-c2ccc(Cl)cc2Cl)c1-c1ccc(Cl)cc1 | 3.08 |
| Cc1c(C(=O)N(C)C(=O)C(C)(C)C)nn(-c2ccc(Cl)cc2Cl)c1-c1ccc(Cl)cc1 | 2.34 |
| Cc1c(C(=O)NS(=O)(=O)c2ccccc2)nn(-c2ccc(Cl)cc2Cl)c1-c1ccc(Cl)cc1 | 3.56 |
| Cc1c(C(=O)NS(=O)(=O)c2ccc(F)cc2)nn(-c2ccc(Cl)cc2Cl)c1-c1ccc(Cl)cc1 | 3.08 |
| CCC(C)(C)C(=O)N(C)C(=O)c1nn(-c2ccc(Cl)cc2Cl)c(-c2ccc(Cl)cc2)c1C | 2.36 |

INPUT: Param item = CCCC(CCC)C(=O)N(C)C(=O)c1nn(-c2ccc(Cl)cc2Cl)c(-c2ccc(Cl)cc2)c1C ; retrieve measured log10 IC50.
OUTPUT: 2.39

INPUT: Another compound to check: CCC(CC)C(=O)N(C)C(=O)c1nn(-c2ccc(Cl)cc2Cl)c(-c2ccc(Cl)cc2)c1C
OUTPUT: 2.42

INPUT: Another compound to check: Cc1c(C(=O)N(C)C(=O)C2CCCCC2)nn(-c2ccc(Cl)cc2Cl)c1-c1ccc(Cl)cc1
OUTPUT: 2.22
